target: Histamine H3 receptor (Homo sapiens, UniProt Q9Y5N1); experiment: Antagonist activity at human histamine H3 receptor expressed in human HEK293-EBNA cells assessed as inhibition of histamine-induced response at 100 uM by luciferase reporter gene assay; assay type: functional, cell-based
Sequence (Q9Y5N1 whole entry): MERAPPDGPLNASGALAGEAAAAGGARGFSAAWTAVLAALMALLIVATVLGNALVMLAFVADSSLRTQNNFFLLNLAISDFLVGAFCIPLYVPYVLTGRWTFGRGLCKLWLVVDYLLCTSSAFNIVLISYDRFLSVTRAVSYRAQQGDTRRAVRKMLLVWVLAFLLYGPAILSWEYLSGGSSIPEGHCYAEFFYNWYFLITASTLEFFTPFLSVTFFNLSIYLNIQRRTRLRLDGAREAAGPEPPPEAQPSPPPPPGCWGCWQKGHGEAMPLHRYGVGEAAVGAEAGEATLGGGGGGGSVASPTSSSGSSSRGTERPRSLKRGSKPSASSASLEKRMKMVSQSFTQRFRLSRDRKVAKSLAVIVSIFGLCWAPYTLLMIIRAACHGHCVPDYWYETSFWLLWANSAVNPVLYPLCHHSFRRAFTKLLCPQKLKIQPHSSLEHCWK
experimental readout: inhibition
Please append the unit to your numeric answer.

Query string: Would you mind telling me what inhibition value was observed for Clc1ccc(CNCC[C@@H]2C[C@H]2c2c[nH]cn2)cc1 ?
Result string: 100%

Query string: Would you mind telling me what inhibition value was observed for CC[C@@H](CNCc1ccc(Cl)cc1)[C@@H]1C[C@H]1c1c[nH]cn1 ?
Result string: 95%

Query string: Would you mind telling me what inhibition value was observed for CC[C@@H](CNCc1ccc(Cl)cc1)[C@H]1C[C@@H]1c1c[nH]cn1 ?
Result string: 88%

Query string: Would you mind telling me what inhibition value was observed for Clc1ccc(CNCC[C@H]2C[C@@H]2c2c[nH]cn2)cc1 ?
Result string: 100%

Query string: Would you mind telling me what inhibition value was observed for CC[C@H](CNCc1ccc(Cl)cc1)[C@H]1C[C@@H]1c1c[nH]cn1 ?
Result string: 96%

Query compound follows.
Query string: Would you mind telling me what inhibition value was observed for CC[C@H](CNCc1ccc(Cl)cc1)[C@@H]1C[C@H]1c1c[nH]cn1 ?
Result string: 73%

---

target: Histamine H3 receptor (Homo sapiens)
Below, each entry is listed with its recorded Ki.
Hi! Could you send only the number? It should be in nM, unit omitted.

Query string: Quick check: Ki on Histamine H3 receptor (Homo sapiens), item Clc1ccc(CNCC[C@H]2C[C@@H]2c2c[nH]cn2)cc1 ?
Result string: 3.6

Query molecule follows.
Query string: Quick check: Ki on Histamine H3 receptor (Homo sapiens), item Clc1ccc(CNCC[C@@H]2C[C@H]2c2c[nH]cn2)cc1 ?
Result string: 8.4

---

biological target: Histamine H3 receptor (Homo sapiens); experiment: Agonist activity at human histamine H3 receptor expressed in human HEK293-EBNA cells by luciferase reporter gene assay; assay type: functional, cell-based
Active and inactive are the calls of the source. The calls are words filed in the database; no cut-off is given here.
experimental readout: Activity

Query string: Quick check: Activity on Histamine H3 receptor (Homo sapiens), item CC[C@@H](CNCc1ccc(Cl)cc1)[C@H]1C[C@@H]1c1c[nH]cn1 ?
Result string: inactive

Query string: Quick check: Activity on Histamine H3 receptor (Homo sapiens), item CC[C@H](CNCc1ccc(Cl)cc1)[C@@H]1C[C@H]1c1c[nH]cn1 ?
Result string: inactive

Query string: Quick check: Activity on Histamine H3 receptor (Homo sapiens), item CC[C@H](CNCc1ccc(Cl)cc1)[C@H]1C[C@@H]1c1c[nH]cn1 ?
Result string: inactive

Query string: Quick check: Activity on Histamine H3 receptor (Homo sapiens), item CC[C@@H](CNCc1ccc(Cl)cc1)[C@@H]1C[C@H]1c1c[nH]cn1 ?
Result string: inactive
